system: Mus musculus; assay: Anticonvulsant activity in mouse assessed as protection against metrazole-induced seizures at 300 mg/kg, ip after 30 mins by subcutaneous pentylenetetrazole seizure threshold test; assay type: functional, organism-based; set-up: dose 300 mg/kg
Calls of active or inactive are those of the source.
Outcome codes: y (active), n (inactive)

- molecule: "CN1C(=O)CC(CCCNC(=O)/C=C\\C(=O)O)(c2ccccc2)C1=O (stereo unspecified)"
  classification: "n"
- molecule: "CN1C(=O)CC(CCCNC(=O)CCl)(c2ccccc2)C1=O (stereo unspecified)"
  classification: "n"
- molecule: "CN1C(=O)CC(CCNC(=O)CCl)(c2ccccc2)C1=O (stereo unspecified)"
  classification: "n"
- molecule: "CN1C(=O)CC(C(=O)c2ccc(NC(=O)/C=C\\C(=O)O)cc2)(c2ccccc2)C1=O (stereo unspecified)"
  classification: "n"
- molecule: "CN1C(=O)CC(C(=O)c2ccc(N3C(=O)C=CC3=O)cc2)(c2ccccc2)C1=O (stereo unspecified)"
  classification: "n"
- molecule: "CCC1(C)CC(=O)NC1=O (stereo unspecified) [ETHOSUXIMIDE]"
  classification: "y"
- molecule: "CN1C(=O)CC(C(=O)c2ccc(NC(=O)CBr)cc2)(c2ccccc2)C1=O (stereo unspecified)"
  classification: "n"
- molecule: "CN1C(=O)CC(c2ccc(NC(=O)/C=C\\C(=O)O)cc2)C1=O (stereo unspecified)"
  classification: "n"
- molecule: "CN1C(=O)CC(CCNC(=O)/C=C\\C(=O)O)(c2ccccc2)C1=O (stereo unspecified)"
  classification: "n"
- molecule: "CN1C(=O)CC(CCCN2C(=O)C=CC2=O)(c2ccccc2)C1=O (stereo unspecified)"
  classification: "n"
- molecule: "CN1C(=O)CC(c2ccc(NC(=O)CCl)cc2)C1=O (stereo unspecified)"
  classification: "n"

###

assay: Neurotoxicity in ip dosed mouse by rotarod test; type: toxicity, organism-based; settings: in vivo
measured endpoint: TD50 (mg/kg)

- compound: "CN1C(=O)CC(c2ccccc2)C1=O (stereo not drawn) [PHENSUXIMIDE]"
  measured endpoint: "TD50"
  value measured: 232
- compound: "CN1C(=O)CC(c2ccc(NC(=O)CBr)cc2)C1=O (stereo not drawn)"
  measured endpoint: "TD50"
  value measured: 54
- compound: "CN1C(=O)CC(C)(c2ccccc2)C1=O (stereo not drawn) [METHSUXIMIDE]"
  measured endpoint: "TD50"
  value measured: 188

###

tested on: Mus musculus; experiment: Anticonvulsant activity in mouse assessed as protection against maximal electroshock-induced hindlimb tonic extensor component of seizure at 300 mg/kg, ip after 4 hrs by MES test; type: functional, organism-based; parameters: dose 300 mg/kg
Active and inactive are the calls of the source. No cut-off for these calls is given here.
Outcome codes: active, inactive

- molecule: "CN1C(=O)CC(C(=O)CBr)(c2ccccc2)C1=O (stereo unspecified)"
  classification: "inactive"
- molecule: "CN1C(=O)CC(C(=O)c2ccc(NC(=O)/C=C\\C(=O)O)cc2)(c2ccccc2)C1=O (stereo unspecified)"
  classification: "inactive"
- molecule: "CN1C(=O)CC(c2ccc(N3C(=O)C=CC3=O)cc2)C1=O (stereo unspecified)"
  classification: "inactive"
- molecule: "CN1C(=O)CC(CCNC(=O)/C=C\\C(=O)O)(c2ccccc2)C1=O (stereo unspecified)"
  classification: "inactive"
- molecule: "CN1C(=O)CC(CCNC(=O)CCl)(c2ccccc2)C1=O (stereo unspecified)"
  classification: "inactive"
- molecule: "CN1C(=O)CC(c2ccccc2)C1=O (stereo unspecified) [PHENSUXIMIDE]"
  classification: "active"
